This collection of values is drawn from PubChem BioAssay (NCI).

- System: NCI-H460 lung
- Protocol: NCI-60 one-dose screen, 48 h
- Setup conditions: 10 µM unless noted
This is part of a sample that, as a whole, favours compounds with a hit. Of some 83,000 tested, about 20% had one in any assay. Calls of active or inactive are those of the source. The calls were made as follows: active = growth percent below 10; inactive = the rest.
Bench note: report the call from t = active, f = inactive

Tell me the recorded outcome of this test for COc1ccc(/C=C(\C#N)C(=O)Nc2cccc(Nc3nc(SC)nc(-c4cccc([N+](=O)[O-])c4)c3C#N)c2)cc1OC .
f

Would you mind telling me which call this test gave Cc1cc(N2CCN(C)CC2)nc(NC2CCCC(Nc3ccnc4cc(Cl)ccc34)C2)n1 (stereo not given) ?
t

Write down the call the test reported for this compound. Item: CCC([N+](=O)[O-])S(=O)(=O)c1ccc(C)cc1 (stereo not given)
f

Status in this test for COc1cccc(/C=C2\Oc3cc(OCCN4CCCC4)ccc3C2=O)c1 ?
f

Which result was noted for this compound in the test: CC[C@@H]1O[C@H](O[C@@H](c2cnc[nH]2)[C@H](NC(=O)c2nc([C@H](CC(N)=O)NC[C@@H](N)C(N)=O)nc(N)c2C)C(=O)N[C@H](C)[C@H](O)[C@H](C)C(=O)N[C@@H](C(=O)NCCc2nc(-c3nc(C(=O)NCCCCN=C(N)N)cs3)cs2)[C@@H](C)O)[C@H](O[C@@H]2O[C@H](CO)[C@H](O)[C@H](OC(N)=O)[C@@H]2O)[C@H](C)[C@@H]1C
f

* * *

- System: IGROV1 ovarian
- Protocol: NCI-60 one-dose screen, 48 h (100 = growth as untreated, 0 = no growth, -100 = all killed)
- Setup conditions: 10 µM unless noted
Compounds without any hit were thinned out: in the full panel of roughly 83,000, 20% have a hit.
Recorded endpoint: growth (%)
Report the value in % with no unit label.

Item: COc1cc2c(cc1OC)C(Sc1ccc(SC)cc1)c1c(nc(N)c(C#N)c1N)O2 (stereo not given) Test system: IGROV1 ovarian Read-out: growth Value: ?
-68.9

Record lookup: for IGROV1 ovarian, what growth belongs to CC1=C[C@H]2c3c(c(O)c(O)c4oc5ccccc5c(=O)c34)[C@H](c3cc(O)c(O)c4oc5ccccc5c(=O)c34)[C@H]2C(C)(C)C1 ?
-4.25

Value wanted: growth (IGROV1 ovarian) of entry COc1cccc(-c2nn(C(C)(C)C)cc2-c2ccnc(NCCCNS(=O)(=O)c3cccc4ccccc34)c2)c1
110

Form: Entry = COc1ccc(CCNc2nc3c(c(=O)n(Cc4ccc(Br)cc4)c(=O)n3C)n2C)cc1OC | System = IGROV1 ovarian | growth = ____
83.2

# query: growth | item c1ccc(Cn2cc(-c3nc4ccccc4s3)c3cccnc32)cc1 | system: IGROV1 ovarian
94.3

* * *

- System: UACC-62 melanoma
- Protocol: NCI-60 one-dose screen, 48 h
- Setup conditions: 10 µM unless noted
The panel holds about 83,000 compounds, 20% with a hit somewhere; the sample as a whole holds those more often. Calls of active or inactive are those of the source. Rule for the calls: active = growth percent below 10; inactive = the rest.
Pick one: T for active, F for inactive

Answer briefly: the call reported for O=C(COc1cccc(/C=C2\CSc3ccccc3C2=O)c1)Nc1nccs1 in this assay.
F

Test call for this compound, please: COc1cccc(-c2nn(C(C)(C)C)cc2-c2ccnc(NCCCNS(=O)(=O)c3cccc4ccccc34)c2)c1
F

For O=C(/C=C/c1ccc(C(F)(F)F)cc1)Nc1ccc(C=C2c3ccccc3C(=O)c3ccccc32)cc1 , which call appears in the assay record?
F

Test call, this compound: Cc1ccc(-c2onc3c(=O)[nH]nc(-c4ccccc4)c23)cc1
F

Check the results log: what was the call for Cn1cc(C(=O)c2nc(-c3c[nH]c4ccc(Br)cc34)no2)c2cc(F)ccc21 ?
F

Look up the recorded call for CN1CCN(c2nc(NCCCNc3ccnc4cc(Cl)ccc34)c3ccccc3n2)CC1 in this test.
T

What classification did O=c1cc(/C(=C2/C=CC=N2)c2ccc[nH]2)c2cc(Cl)ccc2o1 end up with in this test?
F

What is the recorded call for this compound in the test? Cc1cc(C)c2nc3nc(C)cc(C)c3c(N)c2c1
F

Call for entry COc1ccc(CCNc2nc3c(c(=O)n(Cc4ccc(Br)cc4)c(=O)n3C)n2C)cc1OC :
F

What did the test return for CSc1nc(NCc2ccccc2)c(C#N)c(-c2cccc([N+](=O)[O-])c2)n1 ?
F

What call does the record list for O=C1c2cc3c(cc2-c2c1c1ccc(Cl)cc1c(=O)n2CCCN1CCOCC1)OCO3 ?
F

Which outcome did this test record for the compound Cn1ccnc1C(=O)/C=C/c1ccc(CC(=O)Nc2ccccc2)cc1 ?
F

What outcome does the record of this test show for CCN(CC)CCCCNc1c2ccc(Cl)cc2nc2ccc(OC)cc12 ?
T

GET /call?item= COc1ccc(C(=O)COc2cccc(/C=C3\CSc4ccccc4C3=O)c2)cc1 returns the recorded outcome of this test.
T

Call for entry COc1ccc(/C=C(\C#N)C(=O)Nc2cccc(Nc3nc(SC)nc(-c4cccc([N+](=O)[O-])c4)c3C#N)c2)cc1OC :
F

Could you kindly confirm the outcome this assay logged for O=c1ccccc(-c2ccc(-c3ccco3)cc2)c1O ?
T

Recorded call for CCOc1cc2c(cc1OCC)C(c1cc(OC)c(O)cc1Cl)NCC2 (stereo unspecified) ?
F

Assay outcome for C#CCOc1ccc2ncnc(Nc3cccc(CNC(=O)CCl)c3)c2c1 : what was it?
F

# fetch the recorded call for COc1cccc(-c2nc3sccn3c2-c2ccnc(NCCCNS(=O)(=O)c3c(Cl)cccc3Cl)c2)c1 here
F

What call does the record list for COc1ccc(-c2cc(Nc3ccnc(N4CCOCC4)n3)on2)cc1 ?
F

Identify the outcome logged in this assay for the compound shown: COc1cccc(Nc2nc(SC)nc(-c3cccc([N+](=O)[O-])c3)c2C#N)c1
F

* * *

- Tested on: CAKI-1 renal
- Protocol: NCI-60 one-dose screen, 48 h (100 = growth as untreated, 0 = no growth, -100 = all killed)
- Setup conditions: 10 µM unless noted
The panel holds about 83,000 compounds, 20% with a hit somewhere; the sample as a whole holds those more often. Active and inactive are the calls of the source. Rule for the calls: active = growth percent below 10; inactive = the rest.
Recorded endpoint: growth

# lookup: growth of CC1=C[C@H]2c3c(c(O)c(O)c4oc(-c5ccccc5)cc(=O)c34)[C@H](c3cc(O)c(O)c4oc(-c5ccccc5)cc(=O)c34)[C@H]2C(C)(C)C1
-27% (active)

Consider the compound shown here: COc1cc2c(cc1O)CC[C@@H]1[C@@H]2CC[C@]2(C)[C@@H](NCCN(C)C)CC[C@@H]12 What is its recorded growth?
-95.9% (active)

Using the record for COc1cc(-c2nn(C)nc2-c2cc3ccccc3s2)cc(OC)c1OC , report its growth.
43.6% (inactive)

// returns reported growth for input COC(=O)c1ccc(NC(=O)c2ccc(-c3cccc([N+](=O)[O-])c3)o2)cc1
88% (inactive)

Quick one: growth of CC(O)CN(CC(C)O)c1ccc2c(c1)Cc1cc([N+](=O)[O-])ccc1-2 (centres undefined) ?
84.6% (inactive)

Request the reported growth associated with CCOC(=O)c1c(CN2CCN(C)CC2)nc2ccc(Cl)cc2c1-c1ccccc1
52.8% (inactive)

Given the compound C=CCSSC1N=CNc2nc[nH]c21 (centres undefined) , what is its reported growth?
9.26% (active)

Recorded growth for O=c1c(F)cn(Cc2ccccc2CCl)c(=O)n1Cc1ccccc1CCl , please?
-84.5% (active)

Entry Fc1ccc(CNc2cccc3[nH]c(C(F)(F)F)nc23)cc1 : reported growth = ?
81.2% (inactive)

Which growth value is on record for Cc1ccc2oc(=O)cc(C3c4ccc([nH]4)C(c4cc(=O)oc5ccc(C)cc45)c4ccc([nH]4)C(c4cc(=O)oc5ccc(C)cc45)c4ccc([nH]4)C(c4cc(=O)oc5ccc(C)cc45)c4ccc3[nH]4)c2c1 (centres undefined) ?
-13.6% (active)

Can you share its growth? I mean this compound: CC(=O)Nc1ccc(-n2c(O)c(/C=N/NC(=O)Cc3ccccc3Nc3c(Cl)cccc3Cl)sc2=S)cc1
84.9% (inactive)

Please report the recorded growth for N#Cc1cnn(-c2nc3c(Cl)cccc3s2)c1N .
82.8% (inactive)

Given O=C1c2cc3c(cc2-c2c1c1ccc(F)cc1c(=O)n2C[C@H](O)[C@@H](O)[C@H](O)CO)OCO3 , state its recorded growth.
-7.09% (active)

I am curious: what growth value has been reported for OCCN1CCN(c2nc(Nc3ccc(-c4nc5ccccc5[nH]4)cc3)c3cn[nH]c3n2)CC1 ?
-97.3% (active)

Which growth value belongs to Cc1cc2nc(NC(=O)CN3CCN(CCN4C(=O)c5cccc6cccc(c56)C4=O)CC3)sc2cc1C ?
88% (inactive)

Could you share which growth value was measured for COc1cc2c(cc1O)CC[C@@H]1[C@@H]2CC[C@]2(C)[C@@H](OCCCN(C)C)CC[C@@H]12 ?
10.9% (inactive)

Item under review: COc1ccc2c(c1)CC/C(=C\c1cncc(Br)c1)C2=O . Reported growth?
86.6% (inactive)

Item under review: COc1ccccc1NS(=O)(=O)c1ccc2oc(SC(C)C)nc2c1 . Reported growth?
71.2% (inactive)

Record request: growth value, item NC(=O)c1cc(Cl)ccc1NC(=O)/C=C/c1ccccc1
56.5% (inactive)

Query: growth; subject: C#Cc1cccc(NC(=O)c2ccccc2NC(=O)C=C)c1
97.3% [8.25 µM] (inactive)

Can you share its growth? I mean this compound: CN(CCCCCl)P(=O)(OCc1ccc([N+](=O)[O-])o1)C(F)(F)c1ccc(CC(=O)NC[C@@H](O)/C=C\[C@@H](O)[C@H](CO)Cc2ccccc2)cc1 (some centres undefined)
104% (inactive)

Returns the measured growth for the input compound. Input: Cc1cc(N2CCN(c3ccnc4cc(Cl)ccc34)CC2)nc(N2CCOCC2)n1
85.9% (inactive)

Query: growth; subject: O=C1Nc2c(ccc(Cl)c2Cl)/C1=C\c1cc(C(F)(F)F)cc(C(F)(F)F)c1
8.62% (active)

Quick one: growth for O=C(/C=C/c1cccc(Cl)c1)c1ccc(O)c(CN2CCN(c3cc4c(cc3F)c(=O)c(C(=O)O)cn4C3CC3)CC2)c1 ?
44.6% (inactive)

If you can, please state the reported growth value of O=C1/C(=C/c2ccc(Cl)cc2)SC(=S)N1CCc1ccc(O)cc1 .
81.3% (inactive)

Which growth value is on record for COc1cc(/C=C/c2cc(/C=C/c3ccc(O)c(OC)c3)n(-c3c(C)cccc3C)c(=O)n2)ccc1O ?
17.2% (inactive)

I have this compound here, O=C(N=Nc1c(O)[nH]c2ccccc12)c1cc(-c2ccccc2)on1 , and I need its recorded growth.
86.7% (inactive)

# get_value(readout='growth', item= C=CC(=O)Nc1cccc(Nc2nc(SC)nc(-c3cccc([N+](=O)[O-])c3)c2C#N)c1 )
42.6% (inactive)

# get_value(readout='growth', item= C=CC(=O)Nc1cccc(-c2nc(SC)nc(Nc3cccc(OC)c3)c2C#N)c1 )
44.9% (inactive)

// lookup growth for CCCOc1cc2ccccc2cc1C(=O)Nc1nc(N)c2c(ccc3nccc32)[nH]1
-46.7% (active)

# lookup: growth of Cn1cc(C(=O)c2nc(-c3c[nH]c4ccc(Br)cc34)no2)c2cc(F)ccc21
80.1% (inactive)

Consider the compound COc1cc(/C=C/C(=O)Nc2cccnc2Nc2ccc(F)cc2)cc(OC)c1OC and give its measured growth.
88.6% (inactive)

Param item = COc1cc(/C=C/C(=O)c2cccnc2Nc2ccc(F)cc2)cc(OC)c1OC ; retrieve measured growth.
51.6% (inactive)

Would you kindly share the measured growth for Cc1cn2c(/C=C3/C(=O)Nc4c3ccc3ccccc43)c(C(F)(F)F)nc2s1 ?
34.3% (inactive)

I would be grateful if you could share the reported growth for NC(=NCCCC1(c2ccccc2)CCCC1)Nc1ccc(Cl)cc1 .
64.9% (inactive)

Give its growth value. Item: CCOC(=O)c1sc(Nc2ccc(Cl)cc2)nc1C
10.4% (inactive)

If you can, please state the reported growth value of NC1=C(Cl)C(=O)c2ccc(S(N)(=O)=O)cc2C1=O .
-63.8% (active)

Which growth reading was recorded for the compound COc1ccc2c(c1)O/C(=C\c1cccc(OCC(=O)Nc3nc4c(s3)CCCC4)c1)C2=O ?
-100% (active)

What value of growth has been reported for the following compound? Cn1cc(-c2nonc2-c2cn(C)c3ccc(F)cc23)c2ccccc21
26.2% (inactive)
